For UniProt:Q96Q15, measured pIC50 is reported for the entries below.
pIC50: −log10 of the molar value.
measure: pIC50

Here are 2 compounds together with their reported answers.
>>> print(df.to_string())
                                   compound  recorded_measurement
0  Cc1nccc2[nH]c(=O)c(-c3nc4c(N5C[C@H](O)C[C@H]5C)nc(Cl)cc4[nH]3)cc12 [Example 121, methanesulfonate]                  8.85
1  CCc1nc(Cl)cc2[nH]c(-c3cc4c(-c5cnc(C(C)(F)F)cc5OC)nccc4[nH]c3=O)nc12.CS(=O)(=O)O [Example 147, methanesulfonate]                  9.17

(A) [2H]C([2H])([2H])Oc1ccccc1-c1nccc2[nH]c(=O)c(-c3nc4c(C)nc(Cl)cc4[nH]3)cc12
(B) CC1(c2nccc3[nH]c(=O)c(-c4nc5c(C6CCOCC6)nc(Cl)cc5[nH]4)cc23)CC1
From the items above, decide which of A and B has the lower pIC50 reading. Write the label of whichever entry you select.
B
(B: 8.35, A: 9.00)

* * *

Target: human SMG1 enzyme (Homo sapiens)
Sequence (Q96Q15 whole entry): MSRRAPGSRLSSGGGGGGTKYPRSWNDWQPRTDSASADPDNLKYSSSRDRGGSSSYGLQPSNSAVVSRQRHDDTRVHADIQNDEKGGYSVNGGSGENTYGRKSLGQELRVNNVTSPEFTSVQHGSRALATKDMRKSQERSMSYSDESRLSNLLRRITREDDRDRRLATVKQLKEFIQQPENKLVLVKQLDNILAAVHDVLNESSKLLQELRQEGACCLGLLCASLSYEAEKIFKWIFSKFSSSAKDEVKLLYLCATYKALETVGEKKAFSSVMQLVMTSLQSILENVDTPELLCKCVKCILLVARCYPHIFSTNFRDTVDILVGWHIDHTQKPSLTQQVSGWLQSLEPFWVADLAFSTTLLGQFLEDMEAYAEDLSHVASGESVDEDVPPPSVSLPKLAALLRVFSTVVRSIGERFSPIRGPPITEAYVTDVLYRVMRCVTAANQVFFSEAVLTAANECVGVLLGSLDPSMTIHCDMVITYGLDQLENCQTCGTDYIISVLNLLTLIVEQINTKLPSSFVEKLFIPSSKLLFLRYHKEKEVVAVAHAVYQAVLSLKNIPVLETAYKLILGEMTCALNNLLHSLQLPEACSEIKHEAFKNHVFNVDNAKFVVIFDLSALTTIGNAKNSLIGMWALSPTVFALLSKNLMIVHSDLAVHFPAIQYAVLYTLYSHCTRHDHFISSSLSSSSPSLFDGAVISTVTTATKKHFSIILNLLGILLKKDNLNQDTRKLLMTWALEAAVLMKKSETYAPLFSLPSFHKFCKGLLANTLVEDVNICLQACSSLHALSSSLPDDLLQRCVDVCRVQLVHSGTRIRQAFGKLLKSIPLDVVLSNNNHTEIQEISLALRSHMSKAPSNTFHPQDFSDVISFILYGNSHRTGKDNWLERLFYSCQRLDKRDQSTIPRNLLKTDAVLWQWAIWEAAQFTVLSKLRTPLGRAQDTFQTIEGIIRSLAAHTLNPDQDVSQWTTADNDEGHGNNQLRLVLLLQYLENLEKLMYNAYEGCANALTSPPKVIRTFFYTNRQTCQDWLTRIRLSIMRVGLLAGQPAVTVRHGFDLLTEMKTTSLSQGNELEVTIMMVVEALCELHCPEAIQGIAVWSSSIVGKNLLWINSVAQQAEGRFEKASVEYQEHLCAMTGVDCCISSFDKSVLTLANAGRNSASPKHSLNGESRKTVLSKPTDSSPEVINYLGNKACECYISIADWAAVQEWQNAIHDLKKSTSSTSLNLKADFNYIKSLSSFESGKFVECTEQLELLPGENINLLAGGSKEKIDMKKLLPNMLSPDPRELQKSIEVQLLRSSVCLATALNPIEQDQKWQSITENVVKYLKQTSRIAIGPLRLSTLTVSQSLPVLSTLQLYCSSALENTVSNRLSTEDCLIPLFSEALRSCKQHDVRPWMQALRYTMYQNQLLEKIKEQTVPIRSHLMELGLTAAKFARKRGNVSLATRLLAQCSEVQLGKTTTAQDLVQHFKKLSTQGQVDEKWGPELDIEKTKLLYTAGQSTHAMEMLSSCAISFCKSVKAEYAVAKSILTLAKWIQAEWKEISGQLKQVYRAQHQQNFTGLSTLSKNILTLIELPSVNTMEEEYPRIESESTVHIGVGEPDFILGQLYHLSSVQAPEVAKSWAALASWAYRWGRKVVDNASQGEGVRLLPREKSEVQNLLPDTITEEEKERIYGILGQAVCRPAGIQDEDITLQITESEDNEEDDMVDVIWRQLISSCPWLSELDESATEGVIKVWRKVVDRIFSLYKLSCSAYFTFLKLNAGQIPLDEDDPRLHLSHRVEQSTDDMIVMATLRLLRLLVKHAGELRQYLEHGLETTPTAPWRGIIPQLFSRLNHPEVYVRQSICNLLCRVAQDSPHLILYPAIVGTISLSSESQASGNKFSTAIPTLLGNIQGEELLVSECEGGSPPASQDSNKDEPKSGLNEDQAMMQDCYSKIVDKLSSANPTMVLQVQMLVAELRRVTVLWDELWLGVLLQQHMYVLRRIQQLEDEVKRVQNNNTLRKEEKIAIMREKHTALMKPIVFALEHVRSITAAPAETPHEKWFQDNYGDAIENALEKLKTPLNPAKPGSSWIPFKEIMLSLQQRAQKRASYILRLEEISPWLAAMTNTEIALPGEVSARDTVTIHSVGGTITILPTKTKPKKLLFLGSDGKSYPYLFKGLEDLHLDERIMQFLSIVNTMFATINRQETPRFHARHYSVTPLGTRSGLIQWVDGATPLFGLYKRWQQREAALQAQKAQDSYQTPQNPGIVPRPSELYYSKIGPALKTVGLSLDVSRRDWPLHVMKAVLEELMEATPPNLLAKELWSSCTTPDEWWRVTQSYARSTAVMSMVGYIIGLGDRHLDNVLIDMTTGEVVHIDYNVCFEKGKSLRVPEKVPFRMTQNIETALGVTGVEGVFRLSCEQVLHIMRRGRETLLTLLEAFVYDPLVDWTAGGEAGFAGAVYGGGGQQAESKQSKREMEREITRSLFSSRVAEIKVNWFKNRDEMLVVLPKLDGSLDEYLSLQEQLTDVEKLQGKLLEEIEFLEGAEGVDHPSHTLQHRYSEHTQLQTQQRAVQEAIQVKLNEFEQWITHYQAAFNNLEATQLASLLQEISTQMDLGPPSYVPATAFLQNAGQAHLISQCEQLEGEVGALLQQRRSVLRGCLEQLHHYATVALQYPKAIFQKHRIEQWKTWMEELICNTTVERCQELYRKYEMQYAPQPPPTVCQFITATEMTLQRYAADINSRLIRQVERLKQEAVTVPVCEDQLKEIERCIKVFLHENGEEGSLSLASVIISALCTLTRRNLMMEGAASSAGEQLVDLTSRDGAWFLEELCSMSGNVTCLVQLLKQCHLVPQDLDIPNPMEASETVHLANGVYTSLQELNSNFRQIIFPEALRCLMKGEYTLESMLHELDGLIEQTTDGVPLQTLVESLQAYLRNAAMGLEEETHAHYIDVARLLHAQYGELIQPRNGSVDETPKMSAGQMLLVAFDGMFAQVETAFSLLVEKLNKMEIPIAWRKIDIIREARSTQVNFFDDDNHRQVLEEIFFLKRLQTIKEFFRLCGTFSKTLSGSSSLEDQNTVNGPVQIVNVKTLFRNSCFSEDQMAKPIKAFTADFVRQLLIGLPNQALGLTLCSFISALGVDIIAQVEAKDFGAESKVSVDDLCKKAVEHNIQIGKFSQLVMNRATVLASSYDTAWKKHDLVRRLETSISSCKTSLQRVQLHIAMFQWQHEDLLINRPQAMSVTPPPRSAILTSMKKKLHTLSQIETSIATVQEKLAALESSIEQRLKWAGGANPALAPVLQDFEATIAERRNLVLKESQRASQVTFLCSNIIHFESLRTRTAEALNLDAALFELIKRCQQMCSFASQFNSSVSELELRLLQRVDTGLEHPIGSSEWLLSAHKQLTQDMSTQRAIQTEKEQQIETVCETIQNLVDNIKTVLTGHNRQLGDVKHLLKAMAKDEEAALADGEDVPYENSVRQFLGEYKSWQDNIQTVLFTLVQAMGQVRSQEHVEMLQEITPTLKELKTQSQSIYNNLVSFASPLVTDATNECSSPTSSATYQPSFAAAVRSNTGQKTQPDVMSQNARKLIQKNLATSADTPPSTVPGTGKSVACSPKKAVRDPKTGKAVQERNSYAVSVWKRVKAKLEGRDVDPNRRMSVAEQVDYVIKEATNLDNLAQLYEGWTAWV
measure: IC50 (nM)

>>> df
                                   compound  unit_tag  recorded_measurement
0  CS(=O)(=O)O.[2H]C([2H])([2H])Oc1cccc(F)c1-c1nccc2[nH]c(=O)c(-c3nc4c(CC)nc(Cl)cc4[nH]3)cc12        nM                  0.63
1  CS(=O)(=O)O.Cc1nccc2[nH]c(=O)c(-c3nc4c(N5CC[C@H]5C)nc(Cl)cc4[nH]3)cc12 [Example 123, methanesulfonate]        nM                   1.6
2  COc1ccc(F)cc1-c1nccc2[nH]c(=O)c(-c3nc4c(C)nc(Cl)cc4[nH]3)cc12.CS(=O)(=O)O [Example 131, methanesulfonate]        nM                  0.78
3  COc1ncccc1-c1nccc2[nH]c(=O)c(-c3nc4c(NCC(F)(F)F)nc(Cl)cc4[nH]3)cc12.CS(=O)(=O)O [Example 142, methanesulfonate]        nM                  0.63
4  CCc1nc(Cl)cc2[nH]c(-c3cc4c(-c5ccc(C)nc5OC)nccc4[nH]c3=O)nc12        nM                  0.62
5  Cc1c2cccc1-c1nccc3[nH]c(=O)c(cc13)-c1nc3c(nc(Cl)cc3[nH]1)NCC(C)(C)NC(=O)CO2        nM                   1.6
6  COc1nc(C)ncc1-c1nccc2[nH]c(=O)c(-c3nc4c(NCC(F)F)nc(Cl)cc4[nH]3)cc12        nM                  0.91
7  COc1cc(C2CC2)ncc1-c1nccc2[nH]c(=O)c(-c3nc4cnc(Cl)cc4[nH]3)cc12        nM                  0.95

(a) CCc1nc(Cl)cc2[nH]c(-c3cc4c(-c5cnc(C(F)(F)F)cc5OC)nccc4[nH]c3=O)nc12.CS(=O)(=O)O [Example 145, methanesulfonate]
(b) C[C@@H]1C[C@@H](F)CN1c1nc(Cl)cc2[nH]c(-c3cc4c(C5CCOCC5)nccc4[nH]c3=O)nc12 [Example 119, methanesulfonate]
(c) Cc1nc(Cl)cc2[nH]c(-c3cc4c(-c5c(F)cccc5C#N)nccc4[nH]c3=O)nc12
Order the 3 compounds from highest to lowest IC50. Give the labels in the order specified.
b, a, c

(P) [2H]C([2H])([2H])Oc1ccccc1-c1nccc2[nH]c(=O)c(-c3nc4c(C(C)F)nc(Cl)cc4[nH]3)cc12 (stereo not shown)
(Q) CCc1nc(Cl)cc2[nH]c(-c3cc4c(-c5ccn(C(F)F)n5)nccc4[nH]c3=O)nc12 [Example 150, methanesulfonate]
// max by IC50 over [ P , Q ] Write the label of whichever entry you select.
Q

* * *

pIC50: −log10 of the molar value. Structures can show the parent of a compound that is named as a salt.
For human SMG1 enzyme (Homo sapiens, UniProt Q96Q15), measured pIC50 is reported for the entries below.
measure: pIC50

Here are 2 compounds together with their reported answers.
>>> print(df.to_string())
                                   compound  measure  recorded_measurement
0  CCc1nc(Cl)cc2[nH]c(-c3cc4c(-c5c(O)cccc5F)nccc4[nH]c3=O)nc12.CS(=O)(=O)O [Example 137, methanesulfonate]    pIC50                  8.92
1  CCc1nc(Cl)cc2[nH]c(-c3cc4c(-c5cc(C)n(C)n5)nccc4[nH]c3=O)nc12 [Example 151, methanesulfonate]    pIC50                  8.82

(a) CCc1nc(Cl)cc2[nH]c(-c3cc4c(-c5cc(F)ccc5OC)nccc4[nH]c3=O)nc12
(b) CN1CCCN(C)c2nc(Cl)cc3[nH]c(nc23)-c2cc3c(nccc3[nH]c2=O)-c2ccc(cc2F)C1=O
From the items above, decide which of a and b has the lower pIC50 reading. Write the label of whichever entry you select.
a
(a: 8.92, b: 9.19)

(1) [2H]C([2H])([2H])Oc1ccccc1-c1nccc2[nH]c(=O)c(-c3nc4c(CC)nc(Cl)cc4[nH]3)cc12
(2) CS(=O)(=O)O.C[C@@H]1C[C@@H](F)CN1c1nc(Cl)cc2[nH]c(-c3cc4cnccc4[nH]c3=O)nc12 [Example 118, methanesulfonate]
// max by pIC50 over [ 1 , 2 ] Write the label of whichever entry you select.
1

(I) Nc1cccc(-c2nc(Cl)cc3[nH]c(-c4cc5cnccc5[nH]c4=O)nc23)c1 [Example 24, trifluoroacetate]
(II) C[C@@H]1C[C@H](O)CN1c1nc(Cl)cc2[nH]c(-c3cc4cnccc4[nH]c3=O)nc12 [Example 120, methanesulfonate]
// max by pIC50 over [ I , II ] Write the label of whichever entry you select.
II

* * *

Biological target: human SMG1 enzyme (Homo sapiens)
Assay: Measurement of SMG1 kinase activity (ADP-Glo Kinase Assay)
Type: biochemical
Details: purified human SMG1 enzyme 5 nM, Upf1 peptide substrate, ATP 4 μM; qAC50 synonymous with IC50; read-out: Test Example 1 ADP-Glo IC50
pIC50: −log10 of the molar value.
measure: pIC50

Here are 5 molecules together with their reported answers.
molecule	pIC50
CS(=O)(=O)O.O=c1[nH]c2ccncc2cc1-c1nc2c(C3CCOCC3)nc(Cl)cc2[nH]1 [Example 126, methanesulfonate]	8.80
[2H]C([2H])([2H])Oc1ccccc1-c1nccc2[nH]c(=O)c(-c3nc4c(N5CCNC(=O)C5)nc(Cl)cc4[nH]3)cc12 [Example 43]	9.01
Cc1c2cccc1-c1nccc3[nH]c(=O)c(cc13)-c1nc3c(nc(Cl)cc3[nH]1)N1CCCN(CC1)C(=O)CO2 [Example 110]	8.89
CS(=O)(=O)O.Cc1nn(C(F)F)c(C)c1-c1nccc2[nH]c(=O)c(-c3nc4c(N5CC[C@H]5C)nc(Cl)cc4[nH]3)cc12 [Example 149, methanesulfonate]	9.17
O=c1[nH]c2ccncc2cc1-c1nc2c(-c3ccccc3F)nc(Cl)cc2[nH]1 [Example 25]	8.74

(A) CS(=O)(=O)O.[2H]C([2H])([2H])Oc1ccccc1-c1nccc2[nH]c(=O)c(-c3nc4c(N[C@H]5CCOC5)nc(Cl)cc4[nH]3)cc12 [Example 134]
(B) CS(=O)(=O)O.Cc1ccccc1-c1nccc2[nH]c(=O)c(-c3nc4c(NCC(F)(F)F)nc(Cl)cc4[nH]3)cc12 [Example 129, methanesulfonate]
(C) CCc1nc(Cl)cc2[nH]c(N3Cc4c(ccnc4-c4cnc(C5CC5)cc4OC)NC3=O)nc12.CS(=O)(=O)O [Example 154, methanesulfonate]
(D) CCc1cc(OC)c(-c2nccc3[nH]c(=O)c(-c4nc5c(CC)nc(Cl)cc5[nH]4)cc23)cn1.CS(=O)(=O)O [Example 139, methanesulfonate]
Give the ascending ranking of the items by reported pIC50. Give the labels in the order specified.
B, A, C, D
(B: 8.46, A: 8.96, C: 9.28, D: 9.51)

(A) CS(=O)(=O)O.Cc1nccc2[nH]c(=O)c(-c3nc4c(N5CCOC[C@H]5C)nc(Cl)cc4[nH]3)cc12 [Example 124, methanesulfonate]
(B) CCc1nc(Cl)cc2[nH]c(-c3cc4c(-c5c(C)nn(C(F)F)c5C)nccc4[nH]c3=O)nc12.CS(=O)(=O)O [Example 148, methanesulfonate]
(C) C[C@@H]1COCCN1c1nc(Cl)cc2[nH]c(-c3cc4cnccc4[nH]c3=O)nc12.Cc1ccc(S(=O)(=O)O)cc1 [Example 117, p-toluenesulfonate]
(D) CCc1nc(Cl)cc2[nH]c(-c3cc4c(-c5c(C6CC6)nn(C(F)F)c5C)nccc4[nH]c3=O)nc12 [Example 92]
(E) Cc1nn(C(F)F)c(C)c1-c1nccc2[nH]c(=O)c(-c3nc4c(N5C[C@@H](O)C[C@H]5C)nc(Cl)cc4[nH]3)cc12 [Example 85]
Order the 5 molecules from highest to lowest pIC50. Give the labels in the order specified.
E, B, D, A, C

These entries and their values trace back to patent US20260109715A1.
